Where do the numbers come from? From the NIST ThermoML archive (doi:10.1016/j.jct.2008.07.005).

test: xn = mol fraction of the nth substance listed; conditions: 283.15 K; 98.93 kPa; Liquid; x1 = 0.1
measure: mass density (kg/m3)

OCC(O)CO [glycerol] + O ... 1092.7
CC(O)CO (centres undefined) [1,2-propanediol] + O ... 1030.57
OCCCO [propan-1,3-diol] + O ... 1025.57
CCCO [propan-1-ol] + O ... 960.42

----------
assay: xn = mol fraction of the nth substance listed; settings: 288.15 K; 98.93 kPa; Liquid; x1 = 0.05
measure: mass density (kg/m3)

OCCCO [propan-1,3-diol] + O ... 1012.49
CCCO [propan-1-ol] + O ... 978.27
CC(O)CO (centres undefined) [1,2-propanediol] + O ... 1014.38
OCC(O)CO [glycerol] + O ... 1051.69

----------
assay: xn = mol fraction of the nth substance listed; conditions: 298.15 K; 98.93 kPa; Liquid; x1 = 0.1
measure: mass density (kg/m3)

CC(O)CO (centres undefined) [1,2-propanediol] + O ... 1022.6
OCCCO [propan-1,3-diol] + O ... 1020.58
OCC(O)CO [glycerol] + O ... 1087.05
CCCO [propan-1-ol] + O ... 954.91

----------
assay: xn = mol fraction of the nth substance listed; details: 283.15 K; 98.93 kPa; Liquid; x1 = 0.01
measure: mass density (kg/m3)

OCCCO [propan-1,3-diol] + O ... 1002.44
CCCO [propan-1-ol] + O ... 994.38
OCC(O)CO [glycerol] + O ... 1011.64
CC(O)CO (centres undefined) [1,2-propanediol] + O ... 1002.65

----------
assay: xn = mol fraction of the nth substance listed; details: 293.15 K; 98.93 kPa; Liquid; x1 = 0.2
measure: mass density (kg/m3)

OCCCO [propan-1,3-diol] + O ... 1037.56
OCC(O)CO [glycerol] + O ... 1143.22
CC(O)CO (centres undefined) [1,2-propanediol] + O ... 1037.19
CCCO [propan-1-ol] + O ... 919.56

----------
test: xn = mol fraction of the nth substance listed; conditions: 293.15 K; 98.93 kPa; Liquid; x1 = 0.065
measure: mass density (kg/m3)

CC(O)CO (centres undefined) [1,2-propanediol] + O ... 1016.94
OCC(O)CO [glycerol] + O ... 1062.99
CCCO [propan-1-ol] + O ... 971.86
OCCCO [propan-1,3-diol] + O ... 1014.85

----------
experiment: xn = mol fraction of the nth substance listed; conditions: 303.15 K; 98.93 kPa; Liquid; x1 = 0.005
measure: mass density (kg/m3)

CC(O)CO (centres undefined) [1,2-propanediol] + O ... 996.87
CCCO [propan-1-ol] + O ... 992.54
OCC(O)CO [glycerol] + O ... 1001.48
OCCCO [propan-1,3-diol] + O ... 996.84

----------
test: xn = mol fraction of the nth substance listed; conditions: 293.15 K; 98.93 kPa; Liquid; x1 = 0.08
measure: mass density (kg/m3)

CCCO [propan-1-ol] + O ... 965.87
OCCCO [propan-1,3-diol] + O ... 1018.24
OCC(O)CO [glycerol] + O ... 1074.81
CC(O)CO (centres undefined) [1,2-propanediol] + O ... 1020.8
